Sourced from patent US20240132578A1

target_of_assay: HIV-1 Env of isolate 98IN022 (subtype C) (HIV-1)
test_protocol: cell-based or functional assay
observation_type: IC50 (µg/mL), pseudovirus neutralization

[[record]]
binder = "PGT-127 (antibody, V domains shown) VH: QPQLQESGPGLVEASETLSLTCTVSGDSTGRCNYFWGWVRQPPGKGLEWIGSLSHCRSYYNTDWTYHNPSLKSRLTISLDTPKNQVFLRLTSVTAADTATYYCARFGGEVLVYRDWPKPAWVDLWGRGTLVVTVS VL: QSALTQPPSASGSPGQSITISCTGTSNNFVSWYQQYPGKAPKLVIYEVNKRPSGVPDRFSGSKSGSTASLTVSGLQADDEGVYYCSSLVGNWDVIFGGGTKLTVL"
result = "19.2 µg/mL"

[[record]]
binder = "PGT-126 (antibody, V domains shown) VH: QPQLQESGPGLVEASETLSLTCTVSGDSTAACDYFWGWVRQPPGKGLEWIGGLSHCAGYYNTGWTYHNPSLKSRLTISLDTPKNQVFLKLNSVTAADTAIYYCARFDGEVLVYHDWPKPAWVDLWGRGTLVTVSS VL: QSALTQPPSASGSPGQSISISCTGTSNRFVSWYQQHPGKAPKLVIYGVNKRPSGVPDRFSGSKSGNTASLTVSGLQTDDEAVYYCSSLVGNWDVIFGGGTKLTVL"
result = "0.279 µg/mL"

[[record]]
binder = "PGT-123 (antibody, V domains shown) VH: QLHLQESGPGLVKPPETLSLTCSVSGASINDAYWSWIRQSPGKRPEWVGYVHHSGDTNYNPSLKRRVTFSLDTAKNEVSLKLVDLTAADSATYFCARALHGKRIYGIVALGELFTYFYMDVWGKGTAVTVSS VL: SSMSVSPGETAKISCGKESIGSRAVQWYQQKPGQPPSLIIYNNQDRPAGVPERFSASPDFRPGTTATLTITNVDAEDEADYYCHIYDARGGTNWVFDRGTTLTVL"
result = "0.011 µg/mL"


Now examine the next entry.
// query For the binder PGT-125 (antibody, V domains shown) VH: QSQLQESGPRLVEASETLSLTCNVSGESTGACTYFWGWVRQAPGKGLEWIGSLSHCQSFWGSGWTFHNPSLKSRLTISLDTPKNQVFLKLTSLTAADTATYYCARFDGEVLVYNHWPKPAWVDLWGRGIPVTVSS VL: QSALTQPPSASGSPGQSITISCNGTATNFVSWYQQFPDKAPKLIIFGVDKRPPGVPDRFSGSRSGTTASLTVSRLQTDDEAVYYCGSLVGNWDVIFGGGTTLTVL , what IC50 (µg/mL), pseudovirus neutralization is on record?
// result 22.1 µg/mL
